Procedure summary: Drug concentration in athymic Nu/Nu mouse tumor xenografted with human HCT-116 cells transfected with luciferase at 5 mg/kg, ip administered daily for 10 days by HPLC analysis
Type: ADME, organism-based, Neoplasm
Particulars: time 10 day, read-out: Drug uptake
Measured parameter: concentration at 240 h (ng/g)
# number only, unit ng/g dropped from output

Form field: reported concentration at 240 h of COC(=O)C[C@H]1[C@]2(C)C3=C(C)[C@H](c4ccoc4)C[C@H]3O[C@@H]2[C@@H]2OC(=O)[C@]3(C)C=CC(=O)[C@@]1(C)[C@@H]23 [NIMBOLIDE]
345

###

Procedure summary: Oral bioavailability in Sprague-Dawley rat at 10 mg/kg measured upto 72 hrs
Type: ADME, organism-based
Particulars: in vivo
Measured parameter: bioavailability (%)
# number only, unit % dropped from output

Form field: reported bioavailability of COC(=O)C[C@H]1[C@]2(C)C3=C(C)[C@H](c4ccoc4)C[C@H]3O[C@@H]2[C@@H]2OC(=O)[C@]3(C)C=CC(=O)[C@@]1(C)[C@@H]23 [NIMBOLIDE]
2.72

###

Procedure summary: Drug concentration in athymic Nu/Nu mouse tumor xenografted with human HCT-116 cells transfected with luciferase at 20 mg/kg, ip administered daily for 10 days by HPLC analysis
Format: ADME, organism-based, Neoplasm
Particulars: time 10 day, read-out: Drug uptake
Measured parameter: concentration at 240 h (ng/g)
# number only, unit ng/g dropped from output

Form field: reported concentration at 240 h of COC(=O)C[C@H]1[C@]2(C)C3=C(C)[C@H](c4ccoc4)C[C@H]3O[C@@H]2[C@@H]2OC(=O)[C@]3(C)C=CC(=O)[C@@]1(C)[C@@H]23 [NIMBOLIDE]
868

###

Procedure summary: Acute toxicity in ip dosed rat assessed as lethal dose
Format: organism-based
Particulars: in vivo
Measured parameter: LD50 (mg/kg)
# number only, unit mg/kg dropped from output

Form field: reported LD50 of COC(=O)C[C@H]1[C@]2(C)C3=C(C)[C@H](c4ccoc4)C[C@H]3O[C@@H]2[C@@H]2OC(=O)[C@]3(C)C=CC(=O)[C@@]1(C)[C@@H]23 [NIMBOLIDE]
600

###

Procedure summary: Oral bioavailability in Sprague-Dawley rat at 30 mg/kg measured upto 72 hrs
Format: ADME, organism-based
Particulars: in vivo
Measured parameter: bioavailability (%)
# number only, unit % dropped from output

Form field: reported bioavailability of COC(=O)C[C@H]1[C@]2(C)C3=C(C)[C@H](c4ccoc4)C[C@H]3O[C@@H]2[C@@H]2OC(=O)[C@]3(C)C=CC(=O)[C@@]1(C)[C@@H]23 [NIMBOLIDE]
1.76

###

Procedure summary: Drug concentration in athymic Nu/Nu mouse plasma xenografted with human HCT-116 cells transfected with luciferase at 5 mg/kg, ip administered daily for 10 days by HPLC analysis
Assay type: ADME, organism-based
Particulars: time 10 day, read-out: Drug uptake
Measured parameter: concentration at 240 h

Form field: reported concentration at 240 h of COC(=O)C[C@H]1[C@]2(C)C3=C(C)[C@H](c4ccoc4)C[C@H]3O[C@@H]2[C@@H]2OC(=O)[C@]3(C)C=CC(=O)[C@@]1(C)[C@@H]23 [NIMBOLIDE]
222 ng/mL

###

Procedure summary: Acute toxicity in iv dosed Swiss albino mouse assessed as lethal dose
Type: organism-based
Particulars: in vivo
Measured parameter: LD50 (mg/kg)
# number only, unit mg/kg dropped from output

Form field: reported LD50 of COC(=O)C[C@H]1[C@]2(C)C3=C(C)[C@H](c4ccoc4)C[C@H]3O[C@@H]2[C@@H]2OC(=O)[C@]3(C)C=CC(=O)[C@@]1(C)[C@@H]23 [NIMBOLIDE]
24

Source listed as ChEMBL document CHEMBL5233272.
